System: MDA-MB-453
ASSAY SUMMARY: Cell proliferation MTS assay
Format: cell-based
PROTOCOL CONDITIONS: Homo sapiens, MDA-MB-453, 72 h, read-out: IC50 MDA-MB-453 (PIK3CAH1047R)
PROPERTY NAME: IC50 (nM)
Numbers only; they are read as nM.

1) Nc1ncccc1-c1nc2ccc(-c3ccccc3)nc2n1-c1ccc(C2(N)CCC2)cc1
120

Attention now shifts to the item below.
Reported IC50, compound CC(C)NC[C@@H](C(=O)N1CCN(c2ncnc3c2[C@H](C)C[C@H]3O)CC1)c1ccc(Cl)cc1 [GDC-0068, reference compound] : ____
1000
